# System name: Nav1.7 (or SCN9A) channel; HEK cells stably transfected with hSCN9A (Homo sapiens)
# Construct: expressed in transfected cells
# Sequence (Q15858 whole entry): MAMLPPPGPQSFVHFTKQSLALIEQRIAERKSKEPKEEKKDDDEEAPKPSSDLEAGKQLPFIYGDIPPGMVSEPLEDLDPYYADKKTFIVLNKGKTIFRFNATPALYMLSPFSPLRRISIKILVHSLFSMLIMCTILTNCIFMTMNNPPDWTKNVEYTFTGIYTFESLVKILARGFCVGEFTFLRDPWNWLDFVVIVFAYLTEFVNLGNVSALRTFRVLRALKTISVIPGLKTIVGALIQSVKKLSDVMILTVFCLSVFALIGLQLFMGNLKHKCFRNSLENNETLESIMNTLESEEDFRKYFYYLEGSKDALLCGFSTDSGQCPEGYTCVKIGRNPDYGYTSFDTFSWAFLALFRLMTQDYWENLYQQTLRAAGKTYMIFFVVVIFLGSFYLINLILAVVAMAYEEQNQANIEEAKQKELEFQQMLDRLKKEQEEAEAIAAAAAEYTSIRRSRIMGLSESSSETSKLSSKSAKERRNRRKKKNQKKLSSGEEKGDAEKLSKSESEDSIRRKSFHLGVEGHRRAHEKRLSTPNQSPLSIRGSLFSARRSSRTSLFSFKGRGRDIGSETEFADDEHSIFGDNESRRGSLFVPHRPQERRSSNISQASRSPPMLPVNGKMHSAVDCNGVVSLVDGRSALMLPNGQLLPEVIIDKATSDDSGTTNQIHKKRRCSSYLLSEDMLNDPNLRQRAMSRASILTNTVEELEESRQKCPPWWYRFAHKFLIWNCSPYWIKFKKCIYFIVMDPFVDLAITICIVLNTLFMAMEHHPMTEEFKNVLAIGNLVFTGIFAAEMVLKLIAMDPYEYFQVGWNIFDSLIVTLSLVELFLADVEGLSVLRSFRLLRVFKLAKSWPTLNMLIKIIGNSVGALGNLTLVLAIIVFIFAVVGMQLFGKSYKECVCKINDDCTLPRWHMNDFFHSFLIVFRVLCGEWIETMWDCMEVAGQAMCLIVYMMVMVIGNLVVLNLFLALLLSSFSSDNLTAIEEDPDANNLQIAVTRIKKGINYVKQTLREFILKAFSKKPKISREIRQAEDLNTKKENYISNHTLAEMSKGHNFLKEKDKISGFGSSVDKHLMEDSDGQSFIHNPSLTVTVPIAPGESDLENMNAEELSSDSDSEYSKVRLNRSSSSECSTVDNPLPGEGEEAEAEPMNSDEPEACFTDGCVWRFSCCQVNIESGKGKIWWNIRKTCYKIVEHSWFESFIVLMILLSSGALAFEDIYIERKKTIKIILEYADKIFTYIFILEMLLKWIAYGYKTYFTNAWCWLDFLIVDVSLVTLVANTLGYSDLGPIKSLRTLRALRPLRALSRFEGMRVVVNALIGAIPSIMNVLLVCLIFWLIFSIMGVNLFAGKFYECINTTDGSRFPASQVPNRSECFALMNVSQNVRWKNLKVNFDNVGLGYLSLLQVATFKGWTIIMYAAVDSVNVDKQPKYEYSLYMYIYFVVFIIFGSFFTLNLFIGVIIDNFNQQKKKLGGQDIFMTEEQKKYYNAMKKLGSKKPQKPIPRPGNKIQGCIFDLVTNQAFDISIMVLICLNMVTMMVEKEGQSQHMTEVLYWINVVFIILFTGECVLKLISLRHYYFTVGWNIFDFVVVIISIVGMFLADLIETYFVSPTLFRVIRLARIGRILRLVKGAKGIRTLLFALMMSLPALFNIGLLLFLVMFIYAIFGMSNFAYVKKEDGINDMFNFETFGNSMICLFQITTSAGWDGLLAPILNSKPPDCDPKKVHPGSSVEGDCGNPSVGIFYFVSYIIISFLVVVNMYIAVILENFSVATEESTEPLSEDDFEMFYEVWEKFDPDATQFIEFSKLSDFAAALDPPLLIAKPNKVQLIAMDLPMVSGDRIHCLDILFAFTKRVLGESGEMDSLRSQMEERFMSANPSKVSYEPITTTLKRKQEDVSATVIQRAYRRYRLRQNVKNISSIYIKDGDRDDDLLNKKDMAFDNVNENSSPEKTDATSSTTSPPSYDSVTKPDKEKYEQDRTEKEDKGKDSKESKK
# Protocol summary: Nav1.7 block, PatchXpress 7000 automated whole-cell voltage clamp, estimated IC50 (EIC50)
# Assay type: cell-based
# Condition label: estimated IC50; hSCN9A HEK cells, PatchXpress platform; Examples 815-1040

| Compound | System name | IC50 (nM) |
| --- | --- | --- |
| Cn1nccc1-c1cc(Cl)ccc1Oc1ccc(S(=O)(=O)Nc2cnccn2)cc1C#N | Nav1.7 (or SCN9A) channel; HEK cells stably transfected with hSCN9A (Homo sapiens) | 6300 |
| N#Cc1cc(S(=O)(=O)Nc2ncns2)ccc1Oc1cc(Cl)c(Cl)cc1-c1ccnnc1 | Nav1.7 (or SCN9A) channel; HEK cells stably transfected with hSCN9A (Homo sapiens) | 8.5 |
| N#Cc1cc(S(=O)(=O)Nc2ncns2)ccc1Oc1cc(OC(F)(F)F)ccc1-c1ccnnc1 | Nav1.7 (or SCN9A) channel; HEK cells stably transfected with hSCN9A (Homo sapiens) | 22 |
| O=S1(=O)CCC(n2nccc2-c2cc(Cl)ccc2Oc2cc(F)c(S(=O)(=O)Nc3ncns3)cc2F)C1 (stereo not shown) | Nav1.7 (or SCN9A) channel; HEK cells stably transfected with hSCN9A (Homo sapiens) | 14 |
| N#Cc1ccc(-c2cc(Cl)ccc2Oc2ccc(S(=O)(=O)Nc3ncns3)cc2C#N)nc1 | Nav1.7 (or SCN9A) channel; HEK cells stably transfected with hSCN9A (Homo sapiens) | 740 |
| Cn1nccc1-c1cc(Cl)ccc1Oc1ncc(S(=O)(=O)Nc2ncns2)cc1Cl | Nav1.7 (or SCN9A) channel; HEK cells stably transfected with hSCN9A (Homo sapiens) | 120 |
| N#Cc1cc(S(=O)(=O)Nc2ncns2)ccc1Oc1ccc(F)cc1-c1cocn1 | Nav1.7 (or SCN9A) channel; HEK cells stably transfected with hSCN9A (Homo sapiens) | 670 |
| N#Cc1cc(S(=O)(=O)Nc2cscn2)ccc1Oc1ccc(Cl)cc1-c1ccnc(N2CCNCC2)c1 | Nav1.7 (or SCN9A) channel; HEK cells stably transfected with hSCN9A (Homo sapiens) | 3.9 |
| O=S(=O)(Nc1nncs1)c1cc(Cl)c(Oc2cc(C(F)(F)F)ccc2-c2ccnnc2)cc1F | Nav1.7 (or SCN9A) channel; HEK cells stably transfected with hSCN9A (Homo sapiens) | 48 |
| N#Cc1cc(S(=O)(=O)Nc2ncns2)ccc1Oc1ccc(Cl)cc1-c1ccc(C(=O)O)cc1 | Nav1.7 (or SCN9A) channel; HEK cells stably transfected with hSCN9A (Homo sapiens) | 3300 |
| COCCn1ccc(-c2cc(Cl)ccc2Oc2cc(F)c(S(=O)(=O)Nc3nncs3)cc2Cl)n1 | Nav1.7 (or SCN9A) channel; HEK cells stably transfected with hSCN9A (Homo sapiens) | 2400 |
| O=S(=O)(Nc1ncns1)c1ccc(Oc2ccc(OC(F)(F)F)cc2-c2ccn[nH]2)c(F)c1 | Nav1.7 (or SCN9A) channel; HEK cells stably transfected with hSCN9A (Homo sapiens) | 34 |
| CCOC(=O)c1cnn(-c2ccc(Oc3ccc(S(=O)(=O)Nc4nccs4)cc3C#N)cc2)c1 | Nav1.7 (or SCN9A) channel; HEK cells stably transfected with hSCN9A (Homo sapiens) | 760 |
| N#Cc1cc(S(=O)(=O)Nc2ncns2)ccc1Oc1ccc(Cl)cc1-c1cccc(C(=O)O)c1 | Nav1.7 (or SCN9A) channel; HEK cells stably transfected with hSCN9A (Homo sapiens) | 140 |
| Nc1n[nH]cc1-c1cc(Cl)ccc1Oc1cc(F)c(S(=O)(=O)Nc2ccncn2)cc1Cl | Nav1.7 (or SCN9A) channel; HEK cells stably transfected with hSCN9A (Homo sapiens) | 21 |
| N#Cc1cc(S(=O)(=O)Nc2ncns2)ccc1Oc1ccc(Cl)cc1-c1ccnc(OC2CCC2)c1 | Nav1.7 (or SCN9A) channel; HEK cells stably transfected with hSCN9A (Homo sapiens) | 4.1 |
